The reported measurements were obtained from PubChem BioAssay.

Test: HepG2 cytotoxicity, primary screen, cytotoxicity control for P. falciparum antimalarial project, cell-based, ATP luminescence (AID 2303);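 also: 0% = DMSO wells and 100% = digitonin-killed cells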
Conditions: HepG2 viability, 24-48 h, at 10 µM, stronger effect = higher value
The label 1.0 is reserved for inhibition strictly under 30%; 0.0 covers values equal to or above it.

Compound	Qualitative label
CCCn1c(Sc2ccc(C#N)c([N+](=O)[O-])c2)nnc1-c1ccc(OC)cc1	1.0
O=C(Nc1cccc(-c2nn3ccccc3c2-c2ccnc(Nc3cccc(F)c3)n2)c1)c1c(F)ccc(F)c1Cl	0.0
Cc1ccc(Nc2nnc(SCC(=O)Nc3ccc(CN4CCCC4)cc3)s2)cc1	1.0
NCC1CCCN1Cc1ccc(-c2ccc(-c3nc4ccccc4[nH]3)s2)cc1 (stereo not given)	1.0
CCC(C)NCC(O)(c1ccc(Cl)cc1)c1ccc(Cl)cc1 (stereo not given)	1.0
COc1cc(NC(=O)N2CCOC(CCN3CCC4(CCc5ccccc54)CC3)(c3ccc(Cl)c(Cl)c3)C2)cc(OC)c1 (stereo not given)	1.0
Cc1cc(N2CCCCC2)nc2ccc(NC(=O)c3cc(=O)c4ccccc4o3)cc12	1.0
COc1ccc(CN2CCCC(N3CC4(OC3=O)c3ccccc3-c3ccccc34)C2)c(O)c1 (stereo not given)	1.0
NC1CCCN(Cc2ccc(-c3cccc(-c4nc5ccc(F)cc5[nH]4)c3)cc2)C1 (stereo not given)	0.0
COc1ccccc1CN1CCC(NC(=O)c2ccc(-c3ccc(N(C)C)cc3)s2)CC1	1.0
CC(C)CNCc1cccc(-c2cccc(CNc3ccc4ncccc4c3)c2)c1	1.0
Cc1cc(N[C@@H](Cc2ccccc2)C(=O)NC2CCCC2)nc(NCc2ccccc2C)n1	1.0
Cc1cc(N2CCCC2)nc(/N=C(\N)Nc2cccc(C(F)(F)F)c2)n1	0.0
c1ccc(CN2CCC(Nc3ccc(-c4cn[nH]c4-c4ccccn4)nc3)CC2)cc1	1.0
COc1cc2nc(N3CCC(CNC(=O)c4ccc(-c5ccc(C(=O)N(C)C)cc5OCCO)cc4)CC3)nc(N)c2cc1OC	1.0
COc1ccc(CNc2ncnc3c2[nH]c2ccc(F)cc23)cc1	0.0
Cc1cc(C(=O)Nc2ccc(OCc3ccccc3)cc2)on1	1.0
Cc1cc(NN=Cc2cccc([N+](=O)[O-])c2)c2ccccc2n1	1.0
COc1ccc(NC(=O)c2ccc(-c3ccc(-c4cccnc4)cc3)c(C)c2)cc1OCCN(C)C	1.0
Cc1cc2ccccc2c(CON2C(N)=NC(N)=NC2(C)C)c1C	0.0

* * *

Assay: HepG2 cytotoxicity, primary screen, cytotoxicity control for P. falciparum antimalarial project, cell-based, ATP luminescence (AID 2303);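 also: 0% = DMSO wells and 100% = digitonin-killed cells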
Conditions: HepG2 viability, 24-48 h, at 10 µM, stronger effect = higher value

Item smiles	Unit label	inhibition
CNC(=O)Cc1ccc(C(=O)Nc2cccc(-c3ccc(-c4nc5c(C)cccc5[nH]4)s3)c2)cc1	%	66
O=C(/C=C/c1ccc(Cl)cc1)NCCCCCN1CCN(C(=O)Nc2ccc(Cl)c(C(F)(F)F)c2)CC1	%	18
COc1ccc(NC(=O)c2ccc(-c3nc(-c4cccc(C(F)(F)F)c4)cs3)cc2)cc1N1CCN(C)CC1	%	29
O=C(/C=C/c1ccc(Cl)c(Cl)c1)NCCCCCN1CCC(NC(=O)Nc2ccc(Cl)c(Cl)c2)CC1	%	23
CCCc1cc(OC)c(C[C@@H]2c3cc(O)c(Cl)cc3CCN2C)cc1OC	%	3
CCN1CCN(c2cc(C)c3cc(NC(=O)c4ccc(Br)o4)ccc3n2)CC1	%	-8
Oc1ccc2c(c1NCC1CCCCC1)CCCC2	%	11
COc1ccc(C(=O)Nc2ccc3nc(N4CCCCC4)cc(C)c3c2)cc1[N+](=O)[O-]	%	17
O=C(NCCCCN1CCN(CC=Cc2ccccc2)CC1)c1ccc(NC(=O)c2cc(Cl)cc(Cl)c2)cc1	%	26
